Origin of measurements: paper PMC5540273

tested on: WEE2; conditions: concentration: 1 μM,replicates: in singlicate; n = 1;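 also: KINOMEscan kinase panel screen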
observation.type: %Inh (%)

In [3]: df
Out[3]:
                                   compound  system  observation_type  endpoint_unit  result_value
0  O=C(Nc1ccc(Oc2ccc3nc(NC(=O)C4CC4)cn3n2)c(F)c1)c1cccn(-c2ccccc2)c1=O    WEE2              %Inh              %             0
1  Cn1ccc2ncnc(Oc3ccc(NC(=O)Nc4cc(C(C)(C)C)on4)c(Cl)c3)c21    WEE2              %Inh              %            23
2  CCNCC(Cc1ccccc1)NC(=O)c1cc(Br)c(-c2ccnc3[nH]ccc23)s1.Cl.Cl (stereo not drawn)    WEE2              %Inh              %             7
3           Nc1nccc(-c2ccc3c(N)n[nH]c3c2)n1    WEE2              %Inh              %             0
4  O=c1[nH]cc(-c2ccc(O)cc2)c2sc(-c3ccncc3)cc12    WEE2              %Inh              %             0
5  C[C@@H](Oc1cc(-n2cnc3cc(-c4ccncc4)ccc32)sc1C(N)=O)c1ccccc1Cl    WEE2              %Inh              %             0
6  CSc1nccc(-c2c(-c3ccc(F)cc3)ncn2CCCN2CCOCC2)n1.Cl    WEE2              %Inh              %             1
7   CC(=O)c1c(-c2ccncc2)[nH]c(-c2ccncc2)c1C    WEE2              %Inh              %             0
8  Cc1nnc(-c2ccc3occ(-c4ccc(S(C)=O)cc4)c3n2)o1 (stereo not drawn)    WEE2              %Inh              %            21

* * *

system: MTOR; settings: concentration: 1 μM,replicates: in singlicate; n = 1
%Inh overview
observation.type: %Inh (%)

In [3]: df
Out[3]:
                                 smiles_data  observation_type  result_value
 0  Cc1ccc(Nc2ccnc(Nc3ccc4c(c3)CS(=O)(=O)C4)n2)cc1O.Cl              %Inh            30
 1  Cn1ccc2ncnc(Oc3ccc(NC(=O)Nc4ccnc(C(F)(F)F)c4)c(Cl)c3)c21              %Inh            25
 2  CN(c1ccccc1CNc1nc(Nc2ccc3c(c2)CC(=O)N3)ncc1C(F)(F)F)S(C)(=O)=O              %Inh            21
 3  Cn1ccc2ncnc(Oc3ccc(NC(=O)Nc4cccc(C(F)(F)F)c4)c(F)c3)c21              %Inh            10
 4    O=C(Nc1ccccc1)c1cccc(Oc2ccc3nccn3n2)c1              %Inh            14
 5     O=C(Nc1n[nH]c2cc(-c3ccco3)ccc12)C1CC1              %Inh             0
 6           Cl.Nc1n[nH]c2cc(-c3ccccn3)ccc12              %Inh             0
 7  CSc1nccc(-c2c(-c3ccc(F)cc3)ncn2CCCN2CCOCC2)n1.Cl              %Inh            35
 8  C[C@@H](Oc1cc(-n2cnc3ccc(-c4ccncc4)cc32)sc1C(N)=O)c1ccccc1Cl              %Inh            32
 9  CNC(=O)c1ccccc1Nc1nc(Nc2cccc(CS(C)(=O)=O)c2)ncc1C.O=CO              %Inh             2
10  O=C(NOCC1CC1)c1cc(Br)c(F)c(F)c1Nc1ccc(I)cc1Cl              %Inh            26
11            CCn1c(-c2nonc2N)nc2cncc(Br)c21              %Inh            15
12  COc1cc2ncn(-c3cc(OCC4CCCCC4)c(C(N)=O)s3)c2cc1OC              %Inh             7
13  COc1cccc(OC)c1C(=O)Nc1cccc(-c2nn3ccccc3c2-c2ccnc(Nc3cccc(F)c3)n2)c1              %Inh             0
14  CC(C)S(=O)(=O)N1CCN(Cc2ccc3c(c2)nc(NC(=O)c2ccsc2)n3C[C@H](O)c2ccccc2)CC1              %Inh            14
15  NC(=O)c1ccc(-c2cc3ncnc(SCC(=O)O)c3s2)cc1              %Inh            39
16  CCn1c(-c2nonc2N)nc2cncc(CNC3CCNCC3)c21.Cl              %Inh            30
17  Cn1ccc2ncnc(Oc3ccc(NC(=O)Nc4cncc(C(F)(F)F)c4)c(Cl)c3)c21              %Inh             7

* * *

# %Inh per record follows
test system: MTOR; settings: concentration: 1 μM,replicates: in singlicate; n = 1
observation.type: %Inh

                                   compound  system  observation_type  result_value
0  COC(=O)c1cccc(NC(=O)NC2CCN(c3ccnc(NCc4ccc(F)cc4)n3)CC2)c1 [GSK1379860]    MTOR              %Inh           23%
1  COc1cc2nccc(Nc3ccc(Oc4ccccc4)cc3)c2cc1OC.Cl [GI261656]    MTOR              %Inh           10%
2  O=C(Nc1cccc(C(F)(F)F)c1)c1cccc(Oc2ccc3nccn3n2)c1    MTOR              %Inh            0%
3  CN(c1cccc(CNc2nc(Nc3ccc4c(c3)CC(=O)N4)ncc2C(F)(F)F)c1)S(C)(=O)=O    MTOR              %Inh           24%

* * *

Each record here notes measured %Inh.
system: MEK4; construct: gene MAP2K4; conditions: concentration: 1 μM,replicates: in singlicate; n = 1
observation.type: %Inh (%)

                                smiles_data  result_value
0  Cn1ccc2ncnc(Oc3ccc(NC(=O)Nc4cccc(C(F)(F)F)c4)c(F)c3)c21             0
1           Cl.Nc1n[nH]c2cc(-c3ccccn3)ccc12             5
2  Cn1ccc2ncnc(Oc3ccc(NC(=O)Nc4cc(C(C)(C)C)on4)c(Cl)c3)c21             9
3  O=C(Nc1cccc(Oc2ccc3nccn3n2)c1)Nc1cccc(C(F)(F)F)c1             0
4  C[C@@H](Oc1cc(-n2cnc3ccc(-c4ccncc4)cc32)sc1C(N)=O)c1ccccc1Cl            37

* * *

system: MEK4; construct: gene MAP2K4; settings: concentration: 1 μM,replicates: in singlicate; n = 1
observation.type: %Inh (%)

In [3]: df
Out[3]:
                                   compound  endpoint_unit  result_value
0  Cc1n[nH]c2cc(Nc3ccnc(Nc4cccc(CN5CCOCC5)c4)n3)ccc12 [GW682569]              %            16
1  Cc1ccc(C(=O)Nc2ccc(Oc3ccc4nc(NC(=O)C5CC5)cn4c3)c(F)c2)c(=O)n1-c1ccccc1              %             0
2  CN(c1ccc2c(c1)nc(NCc1ccc(F)cc1)n2C)c1ccnc(Nc2ccc(CS(C)(=O)=O)cc2)n1.Cl [GW813244]              %            40
3  O=C(Nc1n[nH]c2cc(-c3ccco3)ccc12)C1CC1 [SB-737447]              %            18
4    O=C(Nc1ccccc1)c1cccc(Oc2ccc3nccn3n2)c1              %             0
5  CS(=O)(=O)c1cccc(CNc2nc(Nc3ccc4c(c3)[C@@H]3C[C@@H]4CNC3=O)ncc2C(F)(F)F)c1              %            89
6  O=C(Nc1ccc(Oc2ccc3nc(NC(=O)C4CC4)cn3n2)c(F)c1)c1cccn(-c2ccccc2)c1=O              %             0
7     CCCC(=O)Nc1n[nH]c2ncccc12 [SB-601436]              %            14
